- System: Canis familiaris
- test: % inhibition of Histamine-stimulated gastric acid secretion in Heidenhain pouch dog 4 uM/kg, on peroral administration of the compound.
- Format: functional, Canis lupus familiaris, Stomach
reported_metric: Inhibition

chemical_smiles	reported_result
Cc1cc(F)ccc1Nc1nc(N(C)c2ccccc2)c2ccccc2n1	0%
Cc1cc(F)ccc1Nc1nc(N(C)c2ccccc2)c2cc(O)ccc2n1	0%
Cc1ccccc1Nc1nc(N(C)c2ccccc2)c2cccc(OCCCN(C)C)c2n1	25%
Cc1cc(F)ccc1Nc1nc(N(C)c2ccccc2)c2cccc(OCCCN3CCOCC3)c2n1	0%
COc1cccc2c(N(C)c3ccccc3)nc(Nc3ccc(F)cc3C)nc12	32%
Cc1ccccc1Nc1nc(N(C)c2ccccc2)c2cccc(OCCO)c2n1	8%
Cc1cc(F)ccc1Nc1nc(N(C)c2ccccc2)c2cccc(OCCCN(C)C)c2n1	0%
